These entries and their values trace back to the RNAGym collection of RNA variant scans (doi:10.7554/elife.80360).

B1: HDV Ribozyme (parent)
chain: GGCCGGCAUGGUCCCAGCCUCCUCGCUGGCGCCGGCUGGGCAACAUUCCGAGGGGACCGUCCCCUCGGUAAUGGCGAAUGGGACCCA

# Variants of: B1
# EXPERIMENT_NOTES: self-cleavage, relative activity (ratio to wild type); higher = more cleavage; co-transcriptional
Each item that follows carries a reported self-cleavage.
Give the value as a plain number.

Past entries and their recorded results:
MUTANT_ID	RECORDED_VALUE
C32U C84A	0.753
G29C C75G	0.131
A43G C66G	0.404
C15A U27A	0.594
C3A U46A	0.148
C14G C58A	0.639
U12C C33G	0.101
G80U A87U	0.235
A8G U47C	1.07
G54A C85A	0.917

[in] Entry C32A C36A has what self-cleavage?
[out] 0

[in] Another variant to check: C64G C75U
[out] 0.163
